target: Glycogen synthase kinase-3 alpha (Homo sapiens) (UniProt P49840); experiment: Inhibitory activity against Glycogen synthase kinase-3 alpha, expressed as percent control; design: concentration or dose not given beside the values
Sequence (P49840 2-483 limits assumed): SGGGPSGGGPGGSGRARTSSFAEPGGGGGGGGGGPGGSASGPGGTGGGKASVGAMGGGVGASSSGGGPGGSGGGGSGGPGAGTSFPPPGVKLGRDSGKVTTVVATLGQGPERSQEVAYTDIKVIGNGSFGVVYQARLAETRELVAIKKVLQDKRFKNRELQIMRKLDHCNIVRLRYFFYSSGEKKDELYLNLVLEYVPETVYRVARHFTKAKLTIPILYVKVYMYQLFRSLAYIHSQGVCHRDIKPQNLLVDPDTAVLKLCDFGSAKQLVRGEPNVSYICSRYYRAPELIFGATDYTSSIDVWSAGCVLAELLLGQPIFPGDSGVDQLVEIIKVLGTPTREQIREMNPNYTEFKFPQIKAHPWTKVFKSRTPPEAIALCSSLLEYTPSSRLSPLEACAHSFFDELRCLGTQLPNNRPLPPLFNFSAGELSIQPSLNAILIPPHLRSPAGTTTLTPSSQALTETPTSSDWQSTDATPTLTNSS
endpoint-label: Control (%)

# annotated cases, reported Control shown
Asked: // map C=CCC(CCC)C(=O)OC(C)C (stereo unspecified) to recorded Control (system: Glycogen synthase kinase-3 alpha (Homo sapiens) (UniProt P49840))
Given back: 87.9

Asked: Which Control is reported with Glycogen synthase kinase-3 alpha (Homo sapiens) (UniProt P49840) for this entry: CCCC(CCC)C(=O)NO ?
Given back: 54.2

I. CCCC(C)(CCC)C(=O)O
II. CC/C=C(\CCC)C(=O)O
Asked: Please tell me which of the two, I or II , has the higher reported Control value. To answer, give the label that identifies your chosen option.
Given back: II
(II: 100%, I: 67.4%)
